B1: NET1 (parent)
chain: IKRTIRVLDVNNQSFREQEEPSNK

variants of: B1; assay: protein stability index of a GFP-peptide fusion (GPS, HEK-293T) (PSI 1-6); higher = more stable; settings: c terminus: a fixed tail appended;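 also: lentivirally expressed fusions sorted by FACS into six bins by GFP to DsRed ratio, PSI derived from sequencing read proportions per bin multiplied by bin number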
I'd appreciate it if you could supply protein stability index values for the items below.
One number for each entry.

Field: example entries. Status: answers known.
R16P
3.42
D9L
1.77
N23D
4.51
L8H
4.93
R16Q
3.43

Report protein stability index for each item below.
1. D9Y
2. R6H
3. R6P
4. E19S
5. I5R
6. N11P
7. Q18N
8. N23Q

1. 2.41
2. 4.45
3. 4.87
4. 2.44
5. 4.82
6. 4.16
7. 3.52
8. 3.65
